test system: HL-60(TB) leukemia; experiment: NCI tumour cell line growth inhibition, 48 h; in the data active = GI50 below about 0.43 µM; inactive = the rest
Allowed answers: true (active), false (inactive)

> print(dat)
                                   compound    target.or.system  assigned.label
1  S=C(Nc1ccc(-c2nc3ccccc3[nH]2)cc1)Nc1ccc(-c2nc3ccccc3[nH]2)cc1  HL-60(TB) leukemia           false

Ask: Can you look up the reported call for CNC(=O)c1ccccc1Nc1nc(Nc2cc(OC)c(OC)c(OC)c2)ncc1Br for me?
Reply: true

Ask: Can you look up the reported call for CN(Cc1ccccc1)c1ccc(CO)c(Cl)c1 for me?
Reply: false

Ask: Can you look up the reported call for CC(C)([NH-])CO.CC(C)([NH-])CO.[Cl][Cd][Cl] for me?
Reply: false

Ask: Can you look up the reported call for C#Cc1c(/C=C/C(=O)OCC)ccc2ccccc12 for me?
Reply: false

Ask: Can you look up the reported call for C[As](C)SCC(COC(=O)C(Cl)c1ccccc1)OC(=O)C(Cl)c1ccccc1 (stereo unspecified) for me?
Reply: true

----------
test system: SK-MEL-28 melanoma; assay: NCI tumour cell line growth inhibition, 48 h
TGI listing for selected compounds.

A selection of reference data follows.
compound	quantity-kind	reported-value
NC(=O)NCCCC(NC(=O)OCCCCCCn1ccc(=O)[nH]c1=O)C(=O)O (centres undefined)	TGI	> 100 µM
OC(c1ccc(C(F)(F)F)cc1)C(F)(F)c1nc2ccccc2o1 (centres undefined)	TGI	> 100 µM
COc1ccc(-c2cc(=O)c3cc(OC)ccc3[nH]2)cc1	TGI	> 100 µM
Cc1cc(Cc2cc(C)c(NC(=O)C(=O)C3CCC4=C(SC5C=CC=CC5N4)C3=O)c(C(C)C)c2)cc(C(C)C)c1NC(=O)C(=O)C1CCC2=C(SC3C=CC=CC3N2)C1=O (centres undefined)	TGI	> 100 µM
CCN(CC)CC(O)CNc1c2ccc([N+](=O)[O-])cc2nc2cc(OC)c(OC)cc12 (centres undefined)	TGI	1.93 µM

Ask: Identify measured TGI corresponding to CC(C)NC(=O)OCc1c(CO)c2c(n1C)-c1ccccc1CC2
Reply: 64.4 µM

Ask: Identify measured TGI corresponding to CC1SCc2nc3ccccc3n21 (centres undefined)
Reply: > 100 µM

Ask: Identify measured TGI corresponding to CC(=O)OCC1OC(Nn2c(=O)[nH]c3ccccc3c2=O)C(OC(C)=O)C(OC(C)=O)C1OC(C)=O (centres undefined)
Reply: > 100 µM

Ask: Identify measured TGI corresponding to COc1cc(NCCCN=C(N)NC(N)=NC(C)C)c2ncccc2c1
Reply: 35.2 µM

Ask: Identify measured TGI corresponding to C=C(CCC/C(C)=C/C=C/[C@@H](C)CCCc1ccoc1)C[C@@H]1OC(=O)[C@H](C)[C@@H]1O
Reply: 19.1 µM

Ask: Identify measured TGI corresponding to COC1C(O)C(n2ncc3c(SC)nc(SC)nc32)OC1C(O)CO (centres undefined)
Reply: > 100 µM

Ask: Identify measured TGI corresponding to CC12CCC3(OCCO3)C(OC(=O)c3ccccc3)=C1CCC21OCCO1 (centres undefined)
Reply: > 100 µM

Ask: Identify measured TGI corresponding to C#CCSc1cc(Cl)c(C)cc1S(=O)(=O)Nc1nc2ccccc2o1
Reply: > 100 µM

Ask: Identify measured TGI corresponding to C[As](C)SCC(COC(=O)C(Cl)c1ccccc1)OC(=O)C(Cl)c1ccccc1 (centres undefined)
Reply: 28.1 µM

----------
system: SR leukemia; assay: NCI tumour cell line growth inhibition, 48 h
TGI listing for selected compounds.

A selection of reference data follows.
> print(dat)
                                   compound  reported.value
1  OC(c1ccc(C(F)(F)F)cc1)C(F)(F)c1nc2ccccc2o1 (centres undefined)        > 100 µM
2  COC(=O)C(Cc1c[nH]c2ccccc12)NC(=O)c1ccc(-c2ccc(Cl)cc2Cl)o1 (centres undefined)        > 100 µM
3  NC(=O)Cc1nc2c(N)ncnc2n1C1OC(CO)C(O)C1O (centres undefined)        > 100 µM
4  O=c1cc(-c2cccc3c2Sc2ccccc2S3)oc(N2CCOCC2)c1         27.3 µM

Ask: Identify measured TGI corresponding to COC(=O)c1cccn1C(=O)n1cccc1
Reply: > 100 µM

Ask: Identify measured TGI corresponding to CCOC(=O)C1(C(=O)OCC)OC(C)=NC1(C(=O)OC)C(=O)OC
Reply: > 100 µM

----------
test system: HOP-92 NSCLC; assay: NCI tumour cell line growth inhibition, 48 h
quantity-kind: TGI

compound	TGI
CC12CCC3(OCCO3)C(OC(=O)c3ccccc3)=C1CCC21OCCO1 (stereo not given)	> 100 µM
COc1cc(/C=N/n2c(-c3ccccc3)nn(C(C)=O)c2=O)cc(OC)c1OC	> 89.7 µM
Cc1c2c(c(O)c3c(O)cccc13)C(=O)C1(O)C(O)=C(C(=O)NCNc3ccc(C(N)=O)cn3)C(=O)C(N(C)C)C1C2 (stereo not given)	6.92 µM

Ask: Identify measured TGI corresponding to O=C1CSC(c2ccccc2[N+](=O)[O-])N1c1ccc(-c2ccc(-n3c(-c4ccccc4)nc4ccccc4c3=O)cc2)cc1 (stereo not given)
Reply: > 100 µM

Ask: Identify measured TGI corresponding to CC(=O)OC(C)(C)/C(C)=C/C(=O)O[C@H]1C(=O)O[C@@H]2C[C@H]3[C@H](C)C(=O)C(O[C@@H]4O[C@H](CO)[C@@H](O)[C@H](O)[C@H]4O)=C[C@]3(C)[C@H]3[C@@H](O)[C@H](O)[C@@]4(C(=O)O)OC[C@]32[C@@H]14
Reply: > 100 µM

----------
tested on: NCI-H23 lung; test: NCI tumour cell line growth inhibition, 48 h; in the data active = GI50 below about 0.43 µM; inactive = the rest
Allowed answers: 1 (active), -1 (inactive)

molecule	target-or-system	assigned-label
Oc1ccc(-c2nc3ccccc3s2)cc1CN(Cc1ccccn1)Cc1ccccn1	NCI-H23 lung	-1

Ask: Can you look up the reported call for [N-]=[N+]=NCCCCCC(=O)OC(C(=O)c1ccccc1)c1cccc(OCC(=O)NCCOCCOCCNC(=O)CCCC[C@@H]2SC[C@@H]3NC(=O)N[C@@H]32)c1 (some centres not stated) for me?
Reply: -1

Ask: Can you look up the reported call for O=C(NCCCO)c1cc(Cl)ccc1O for me?
Reply: -1

Ask: Can you look up the reported call for COc1cccc(NC(=O)c2sc3nc(C)c(C(O)c4ccccc4)cc3c2N)c1 (configuration not stated) for me?
Reply: 1

Ask: Can you look up the reported call for C[As](C)SCC(COC(=O)C(Cl)c1ccccc1)OC(=O)C(Cl)c1ccccc1 (configuration not stated) for me?
Reply: -1

Ask: Can you look up the reported call for Clc1ccc(-c2c3c(nn2-c2ccccn2)CCc2ccccc2-3)cc1Cl for me?
Reply: -1

Ask: Can you look up the reported call for CC(C)=CCC/C(C)=C/CC/C(C)=C/CSc1ccccc1C(=O)O for me?
Reply: -1

----------
test system: SNB-75 CNS; assay: NCI tumour cell line growth inhibition, 48 h
quantity-kind: TGI (µM)
Use µM as the unit, but write only the number.

A selection of reference data follows.
> print(dat)
                                   molecule  target.or.system  units  reported.value
1  O=C1CSC(c2ccccc2[N+](=O)[O-])N1c1ccc(-c2ccc(-n3c(-c4ccccc4)nc4ccccc4c3=O)cc2)cc1 (stereo unspecified)        SNB-75 CNS     µM            61.3
2  O=C(c1ccccc1)C(CN1CCCCC1)c1ccccc1 (stereo unspecified)        SNB-75 CNS     µM            15.4

Ask: Identify measured TGI corresponding to CCOC(=O)C(Cc1ccc(OC(=O)c2ccc(OC)cc2)cc1)NC(=O)C(F)(F)F (stereo unspecified)
Reply: 46.5

----------
system: OVCAR-3 ovarian; assay: NCI tumour cell line growth inhibition, 48 h
quantity-kind: TGI

A selection of reference data follows.
> print(dat)
                                   compound  quantity.kind  reported.value
1             COc1c2ccoc2c(OC)c2oc(=O)ccc12            TGI        > 100 µM
2  O=C(c1ccccc1)C1OC12C(=O)Nc1c(Cl)cc(Cl)cc12 (stereo unspecified)            TGI        > 100 µM
3  Cc1cccc(C)c1NC(=O)C1C(=O)N(c2c(C)cccc2C)C(=O)/C1=N\N (stereo unspecified)            TGI        > 100 µM
4  C=CCN(C(=O)OC(C)(C)C)[C@H](C)C(=O)N[C@@H](C)C(=O)OC            TGI        > 100 µM
5  Nc1nc2ncc(CNc3ccc(C(=O)NC(CCC(=O)O)C(=O)O)cc3)nc2c(=O)[nH]1 (stereo unspecified)            TGI        > 100 µM

Turning now to a further record.
Ask: Identify measured TGI corresponding to Cc1cccc2c1c(=O)c1c(O)c3c(cc1n2C)OC(C)(C)C=C3
Reply: > 10 µM
